biological target: Transient receptor potential cation channel subfamily V member 4 (Rattus norvegicus, UniProt Q9ERZ8); assay: Antagonist activity at rat TRPV4 expressed in HEK293 cells assessed as inhibition of GSK634775A-induced calcium influx preincubated for 10 mins followed by GSK634775A addition by […] dye based FLIPR assay; type: cell-based
Sequence (Q9ERZ8 whole entry): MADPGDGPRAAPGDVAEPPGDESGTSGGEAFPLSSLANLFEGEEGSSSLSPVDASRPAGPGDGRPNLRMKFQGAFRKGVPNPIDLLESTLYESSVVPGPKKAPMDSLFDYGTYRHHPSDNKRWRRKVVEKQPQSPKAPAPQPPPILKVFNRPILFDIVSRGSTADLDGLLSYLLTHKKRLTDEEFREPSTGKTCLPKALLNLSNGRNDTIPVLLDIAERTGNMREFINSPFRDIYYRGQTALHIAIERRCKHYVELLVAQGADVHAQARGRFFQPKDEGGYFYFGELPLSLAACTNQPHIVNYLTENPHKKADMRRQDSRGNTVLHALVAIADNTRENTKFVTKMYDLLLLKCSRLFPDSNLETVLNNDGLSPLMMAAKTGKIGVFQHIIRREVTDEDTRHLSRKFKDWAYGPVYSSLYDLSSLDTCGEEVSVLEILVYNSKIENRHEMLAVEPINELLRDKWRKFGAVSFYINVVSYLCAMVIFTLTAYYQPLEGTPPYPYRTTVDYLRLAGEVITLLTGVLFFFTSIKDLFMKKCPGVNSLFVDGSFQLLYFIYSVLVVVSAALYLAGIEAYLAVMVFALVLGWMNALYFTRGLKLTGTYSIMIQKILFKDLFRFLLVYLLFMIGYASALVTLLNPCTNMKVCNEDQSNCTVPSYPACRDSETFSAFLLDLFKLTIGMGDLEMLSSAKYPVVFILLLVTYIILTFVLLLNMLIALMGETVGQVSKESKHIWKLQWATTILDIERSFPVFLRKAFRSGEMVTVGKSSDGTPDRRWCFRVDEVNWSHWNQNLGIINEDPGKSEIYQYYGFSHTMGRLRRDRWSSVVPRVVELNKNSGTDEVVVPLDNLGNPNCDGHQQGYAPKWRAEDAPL
Measure Name: IC50 (nM)

Chemical String	Quantity Unit	IC50
Cc1ccc(-c2nc3ccccc3c(C(=O)N[C@@H](C)c3ccccc3)c2CN2CCC(N3CCCCC3)CC2)cc1	nM	100
C[C@H](NC(=O)c1c(CN2CCC(N3CCCCC3)CC2)c(-c2ccc(C(F)(F)F)cc2)nc2ccccc12)c1ccccc1	nM	16
C[C@H](NC(=O)c1c(CN2CCC(N3CCCCC3)CC2)c(-c2ccccc2)nc2ccccc12)c1ccccc1	nM	320

[P] O=C(NC1(c2ccccc2)CC1)c1c(CN2CCC(N3CCCCC3)CC2)c(-c2cccc(C(F)(F)F)c2)nc2ccccc12
[Q] O=C(NCc1ccccc1)c1c(CN2CCC(N3CCCCC3)CC2)c(-c2cccc(C(F)(F)F)c2)nc2ccccc12
[R] COc1cccc(-c2nc3ccccc3c(C(=O)N[C@@H](C)c3ccccc3)c2CN2CCC(N3CCCCC3)CC2)c1
Rank items: key IC50, increasing. Rank them, then answer with their labels in that order.
P, Q, R
(P: 2.5 nM, Q: 50 nM, R: 630 nM)
